# key: entry, value: IC50
# subject of test: KDR (Homo sapiens (Human))
# Sequence (P35968 20-1356): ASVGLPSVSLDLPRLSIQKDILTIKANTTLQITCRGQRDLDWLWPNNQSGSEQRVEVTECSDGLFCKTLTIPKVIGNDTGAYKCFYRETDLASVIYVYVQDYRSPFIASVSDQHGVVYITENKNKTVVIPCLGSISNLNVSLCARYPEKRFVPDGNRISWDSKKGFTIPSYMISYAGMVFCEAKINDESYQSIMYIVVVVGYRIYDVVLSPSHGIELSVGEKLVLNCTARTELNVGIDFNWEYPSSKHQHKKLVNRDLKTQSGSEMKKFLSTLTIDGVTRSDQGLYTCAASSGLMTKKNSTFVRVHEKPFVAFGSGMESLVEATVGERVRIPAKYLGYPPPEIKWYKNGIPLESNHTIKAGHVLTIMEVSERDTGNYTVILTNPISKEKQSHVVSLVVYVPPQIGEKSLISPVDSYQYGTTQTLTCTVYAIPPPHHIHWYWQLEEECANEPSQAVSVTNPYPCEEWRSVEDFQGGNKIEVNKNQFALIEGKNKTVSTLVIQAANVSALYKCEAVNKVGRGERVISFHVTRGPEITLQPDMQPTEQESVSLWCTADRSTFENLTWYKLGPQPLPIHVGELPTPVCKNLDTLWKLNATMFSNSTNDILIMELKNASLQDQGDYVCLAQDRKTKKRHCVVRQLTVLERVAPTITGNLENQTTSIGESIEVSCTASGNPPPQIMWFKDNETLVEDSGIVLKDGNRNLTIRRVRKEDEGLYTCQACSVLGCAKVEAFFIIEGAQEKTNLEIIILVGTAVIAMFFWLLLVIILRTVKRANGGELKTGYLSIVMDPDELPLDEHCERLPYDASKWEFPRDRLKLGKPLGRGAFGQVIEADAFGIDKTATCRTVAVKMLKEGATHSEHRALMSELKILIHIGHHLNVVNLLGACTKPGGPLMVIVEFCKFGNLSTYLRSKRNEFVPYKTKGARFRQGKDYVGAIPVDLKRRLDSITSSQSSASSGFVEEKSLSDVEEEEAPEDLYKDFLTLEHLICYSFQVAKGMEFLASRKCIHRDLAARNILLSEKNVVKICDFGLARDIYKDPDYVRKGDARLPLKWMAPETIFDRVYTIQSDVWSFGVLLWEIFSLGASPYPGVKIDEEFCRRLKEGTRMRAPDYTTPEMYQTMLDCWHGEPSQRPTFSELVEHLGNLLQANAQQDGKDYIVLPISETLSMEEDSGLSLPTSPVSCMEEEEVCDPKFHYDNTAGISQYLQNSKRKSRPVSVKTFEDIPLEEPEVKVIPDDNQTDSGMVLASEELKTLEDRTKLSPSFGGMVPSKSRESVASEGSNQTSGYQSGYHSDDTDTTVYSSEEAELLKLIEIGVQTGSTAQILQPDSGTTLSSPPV
# experiment summary: KDR autophosphorylation ELISA in HUVEC cells
# condition parameters: cellular, VEGF165 stimulated
# Procedure: Human umbilical vein endothelial cells or HUVEC (Lonza #C2519A) were seeded at 2×10^4 cells/well onto 96-well plates (Corning #3904), in EGM-2 growth medium (Lonza #CC-3162) containing 1% Penicillin Streptomycin (Thermo Fisher #15140-122). […] IC50 values were calculated by nonlinear regression analysis using a 4-parameter logistic curve fit in ActivityBase XE (IDBS).

Reference set, count: 3
COc1cc2c(Oc3ccc(NC(=O)C4(C(=O)Nc5ccc(F)cc5)CC4)cc3)ccnc2cc1C(N)=O; 100 to 300 nM
COc1cc2nccc(Oc3ccc(NC(=O)C4(C(=O)Nc5ccc(F)cc5)CC4)cc3)c2cc1-c1cnoc1; 10 to 100 nM
COc1cc2nccc(Oc3ccc(NC(=O)C4(C(=O)Nc5ccc(F)cc5)CC4)cc3)c2cc1C1(O)COC1; 10 to 100 nM

Proceed to the following item.
// IC50 lookup, key: `CO/N=C/c1ccc2c(Oc3ccc(NC(=O)C4(C(=O)Nc5ccc(F)cc5)CC4)cc3)ccnc2c1`
100 to 300 nM

----------
# subject of test: UniProt:P30530
# experiment summary: AXL autophosphorylation ELISA in A-172 cells
# condition parameters: cellular, Gas6 stimulated
# key: entry, value: IC50

Reference set, count: 6
CNC(=O)c1cc2c(Oc3ccc(NC(=O)C4(C(=O)N(C)c5ccc(F)cc5)CC4)cc3F)ccnc2cc1OC [Compound 262]; > 300 nM
COc1cc2nccc(Oc3ccc(NC(=O)C4(C(=O)Nc5ccc(F)cc5)CC4)cc3)c2cc1-c1ccccn1 [Compound 176]; 10 to 100 nM
COc1cc2nccc(Oc3ccc(NC(=O)C4(C(=O)Nc5ccc(F)cc5)CC4)cc3)c2cc1C(=O)NO [Compound 20]; 10 to 100 nM
COc1cc2nccc(Oc3ccc(NC(=O)C4(C(=O)Nc5ccc(F)cc5)CC4)cc3)c2cc1-c1ncc[nH]1 [Compound 191]; ≤ 10 nM
COc1cc2nccc(Oc3ccc(NC(=O)C4(C(=O)Nc5ccc(F)cc5)CC4)cc3)c2cc1C(=O)NCCN1CCOCC1 [Compound 12]; ≤ 10 nM
COC(=O)c1ccc2c(Oc3ccc(NC(=O)C4(C(=O)Nc5ccc(F)cc5)CC4)cc3)ccnc2c1 [Compound 162]; > 300 nM

Proceed to the following item.
// IC50 lookup, key: COc1cc2nccc(Oc3ccc(NC(=O)C4(C(=O)Nc5ccc(F)cc5)CC4)cc3)c2cc1-c1cnco1 [Compound 192]
≤ 10 nM

----------
# key: entry, value: IC50
# subject of test: UniProt P30530
# experiment summary: AXL autophosphorylation ELISA in A-172 cells
# condition parameters: cellular, Gas6 stimulated

COc1cc2nccc(Oc3ccc(NC(=O)C4(C(=O)Nc5ccc(F)cc5)CC4)cc3)c2cc1C(=O)NOCC(O)CO (single isomer, unassigned) [Compound 30]; 100 to 300 nM

// IC50 lookup, key: Cc1cc2c(Oc3ccc(NC(=O)C4(C(=O)Nc5ccc(F)cc5)CC4)cc3F)ccnc2cc1C(N)=O [Compound 293]
10 to 100 nM

// IC50 lookup, key: NC(=O)c1cc2c(Oc3ccc(NC(=O)C4(C(=O)Nc5ccc(F)cc5)CC4)cc3)ccnc2cc1NCCCN1CCOCC1 [Compound 71]
10 to 100 nM

----------
# key: entry, value: pIC50
# subject of test: AXL (Homo sapiens (Human))
# Sequence (P30530 26-894): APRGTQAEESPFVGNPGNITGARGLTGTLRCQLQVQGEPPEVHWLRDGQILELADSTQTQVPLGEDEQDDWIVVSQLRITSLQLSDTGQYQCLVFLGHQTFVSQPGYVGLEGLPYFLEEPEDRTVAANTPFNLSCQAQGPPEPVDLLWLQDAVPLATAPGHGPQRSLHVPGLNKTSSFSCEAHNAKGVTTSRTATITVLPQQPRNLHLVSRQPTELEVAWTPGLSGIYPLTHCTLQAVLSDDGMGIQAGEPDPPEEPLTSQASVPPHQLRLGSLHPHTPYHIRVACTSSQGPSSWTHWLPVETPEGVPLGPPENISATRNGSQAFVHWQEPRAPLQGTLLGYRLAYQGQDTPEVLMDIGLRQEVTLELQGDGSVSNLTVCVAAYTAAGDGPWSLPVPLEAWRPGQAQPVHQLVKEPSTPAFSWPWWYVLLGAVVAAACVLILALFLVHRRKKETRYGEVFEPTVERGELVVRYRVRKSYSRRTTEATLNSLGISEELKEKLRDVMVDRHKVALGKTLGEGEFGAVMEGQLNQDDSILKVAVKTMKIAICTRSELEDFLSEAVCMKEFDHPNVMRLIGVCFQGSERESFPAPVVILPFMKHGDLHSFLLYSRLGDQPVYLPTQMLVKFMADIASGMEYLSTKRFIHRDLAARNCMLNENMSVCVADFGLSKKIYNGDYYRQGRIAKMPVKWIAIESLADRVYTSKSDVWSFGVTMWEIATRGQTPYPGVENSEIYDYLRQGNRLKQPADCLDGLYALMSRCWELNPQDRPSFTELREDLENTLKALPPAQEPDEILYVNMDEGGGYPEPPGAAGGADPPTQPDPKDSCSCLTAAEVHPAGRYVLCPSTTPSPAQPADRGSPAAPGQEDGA
# experiment summary: AXL autophosphorylation ELISA in A-172 cells
# condition parameters: cellular, Gas6 stimulated
pIC50: −log10 of the molar value.

COc1cc2nccc(Oc3ccc(NC(=O)C4(C(=O)Nc5ccc(F)cc5)CC4)cc3)c2cc1C(=O)NN; ≥ 8.00
COCCOc1cc2nccc(Oc3ccc(NC(=O)C4(C(=O)Nc5ccc(F)cc5)CC4)cc3)c2cc1C(N)=O; ≥ 8.00
COc1cc2nccc(Oc3ccc(NC(=O)C4(C(=O)Nc5ccc(F)cc5)CC4)cc3)c2cc1-c1ccn[nH]1; 7.00 to 8.00
Cc1cc2c(Oc3cc(F)c(NC(=O)C4(C(=O)Nc5ccc(F)cc5)CC4)cc3F)ccnc2cc1C(N)=O; ≥ 8.00
COc1cc2nccc(Oc3ccc(NC(=O)C4(C(=O)Nc5ccc(F)cc5)CC4)cc3)c2cc1C(=O)NCCN1CCCCC1; ≥ 8.00
COc1cc2nccc(Oc3ccc(NC(=O)C4(C(=O)Nc5ccc(F)cc5)CC4)cc3)c2cc1N1CC(O)C1; ≥ 8.00

Proceed to the following item.
// pIC50 lookup, key: `CNC(=O)c1cc2nccc(Oc3ccc(NC(=O)C4(C(=O)Nc5ccc(F)cc5)CC4)cc3F)c2cc1C`
7.00 to 8.00

----------
# subject of test: Human Mer (residues R557-E882 with H628Q and R794A) (Homo sapiens (Human), UniProt Q12866)
# Sequence (Q12866 557-882, stated change not applied): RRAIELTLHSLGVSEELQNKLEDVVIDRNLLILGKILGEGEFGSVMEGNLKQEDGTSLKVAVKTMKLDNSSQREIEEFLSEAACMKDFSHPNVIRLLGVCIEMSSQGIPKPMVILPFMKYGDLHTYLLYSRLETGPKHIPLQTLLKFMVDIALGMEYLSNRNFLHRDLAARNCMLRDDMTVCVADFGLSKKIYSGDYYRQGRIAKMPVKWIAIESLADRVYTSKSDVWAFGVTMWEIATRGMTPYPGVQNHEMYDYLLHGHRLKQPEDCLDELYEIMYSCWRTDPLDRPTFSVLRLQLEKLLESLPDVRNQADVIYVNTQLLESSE
# experiment summary: Human Mer kinase assay (33P radiometric, KinaseProfiler)
# condition parameters: 10 μM ATP
pIC50: −log10 of the molar value.
readout type: pIC50

COc1cc2nccc(Oc3ccc(NC(=O)C4(C(=O)Nc5ccc(F)cc5)CC4)cc3)c2cc1-c1ccccn1; ≥ 8.00
CNC(=O)c1cc2c(Oc3ccc(NC(=O)C4(C(=O)Nc5ccc(F)cc5)CC4)cc3Cl)ccnc2cc1OC; ≥ 8.00
COc1cc2nccc(Oc3ccc(NC(=O)C4(C(=O)Nc5ccc(F)cc5)CC4)cc3)c2cc1C1(O)CNC1; ≥ 8.00
CNC(=O)c1cc2nccc(Oc3ccc(NC(=O)C4(C(=O)Nc5ccc(F)cc5)CC4)cc3)c2cc1C; ≥ 8.00
COc1cc2c(Oc3ccc(NC(=O)C4(C(=O)Nc5ccc(F)cc5)CC4)cc3)ccnc2cc1C(=O)O; 7.00 to 8.00

// pIC50 lookup, key: `COc1cc2nccc(Oc3ccc(NC(=O)C4(C(=O)Nc5ccc(F)cc5)CC4)cc3)c2cc1-c1cccc(C#N)c1F`
≥ 8.00

// pIC50 lookup, key: `NC(=O)c1ccc2c(Oc3ccc(NC(=O)C4(C(=O)Nc5ccc(F)cc5)CC4)cc3)ccnc2c1`
≥ 8.00

// pIC50 lookup, key: `COc1cc2nccc(Oc3ccc(NC(=O)C4(C(=O)Nc5ccc(F)cc5)CC4)cc3)c2cc1-c1cccn1C(=O)OC(C)(C)C`
7.00 to 8.00

// pIC50 lookup, key: `COc1cc2nccc(Oc3ccc(NC(=O)C4(C(=O)Nc5ccc(F)cc5)CC4)cc3)c2cc1N1CC(F)(F)C1`
≥ 8.00

// pIC50 lookup, key: `COc1cc2nccc(Oc3ccc(NC(=O)C4(C(=O)Nc5ccc(F)cc5)CC4)cc3Cl)c2cc1C(N)=O`
≥ 8.00

// pIC50 lookup, key: `COc1cc2nccc(Oc3ccc(NC(=O)C4(C(=O)Nc5ccc(F)cc5)CC4)cc3)c2cc1C#N`
≥ 8.00

// pIC50 lookup, key: `O=C(O)c1ccc2c(Oc3ccc(NC(=O)C4(C(=O)Nc5ccc(F)cc5)CC4)cc3)ccnc2c1`
6.00 to 7.00

// pIC50 lookup, key: `NC(=O)c1cc2c(Oc3ccc(NC(=O)C4(C(=O)Nc5ccc(F)cc5)CC4)cc3)ccnc2cc1F`
7.00 to 8.00

// pIC50 lookup, key: `COC(=O)c1ccc2c(Oc3ccc(NC(=O)C4(C(=O)Nc5ccc(F)cc5)CC4)cc3)ccnc2c1`
≥ 8.00

----------
# subject of test: Human Mer (residues R557-E882 with H628Q and R794A) (Homo sapiens (Human))
# experiment summary: Human Mer kinase assay (33P radiometric, KinaseProfiler)
# condition parameters: 10 μM ATP
pIC50: −log10 of the molar value.
# key: entry, value: pIC50

NC(=O)c1cc2c(Oc3ccc(NC(=O)C4(C(=O)Nc5ccc(F)cc5)CC4)cc3)ccnc2cc1OCCCN1CCOCC1; ≥ 8.00

// pIC50 lookup, key: `COc1cc2nccc(Oc3ccc(NC(=O)C4(C(=O)Nc5ccc(F)cc5)CC4)cc3)c2cc1N1CC(O)C1`
≥ 8.00

// pIC50 lookup, key: `NC(=O)c1cc2c(Oc3ccc(NC(=O)C4(C(=O)Nc5ccc(F)cc5)CC4)cc3)ccnc2cc1Br`
7.00 to 8.00

// pIC50 lookup, key: `COc1cc2nccc(Oc3ccc(NC(=O)C4(C(=O)Nc5ccc(F)cc5)CC4)cc3)c2cc1C(=O)N1CCC1`
≥ 8.00

// pIC50 lookup, key: `COc1cc2nccc(Oc3ccc(NC(=O)C4(C(=O)Nc5ccc(F)cc5)CC4)cc3)c2cc1C(=O)NC[C@@H]1CCCN1`
≥ 8.00

// pIC50 lookup, key: `COc1cc2nccc(Oc3ccc(NC(=O)C4(C(=O)Nc5ccc(F)cc5)CC4)cc3)c2cc1S(N)(=O)=O`
≥ 8.00

----------
# subject of test: AXL (Homo sapiens (Human))
# experiment summary: AXL autophosphorylation ELISA in A-172 cells
# condition parameters: cellular, Gas6 stimulated
# Experimental: A-172 glioblastoma cells (ATCC #CRL-1620) were seeded at 2.5×10^5 cells/well onto 24-well plates (Greiner #662165), in DMEM (Thermo Fisher #11995-040) containing 10% FBS (Thermo Fisher #26140-079), 1% MEM NEAA (Thermo Fisher #11140-050), 1% GlutaMax (Thermo Fisher #35050-061) and 1% Penicillin Streptomycin (Thermo Fisher #15140-122). […] IC50 values were calculated by nonlinear regression analysis using a 4-parameter logistic curve fit in ActivityBase XE (IDBS).
pIC50: −log10 of the molar value.
readout type: pIC50

Query pIC50 on AXL (Homo sapiens (Human)) for `NS(=O)(=O)c1ccc2c(Oc3ccc(NC(=O)C4(C(=O)Nc5ccc(F)cc5)CC4)cc3)ccnc2c1`
6.52 to 7.00

Query pIC50 on AXL (Homo sapiens (Human)) for `O=C(NOC1COC1)c1ccc2c(Oc3ccc(NC(=O)C4(C(=O)Nc5ccc(F)cc5)CC4)cc3)ccnc2c1`
6.52 to 7.00

Query pIC50 on AXL (Homo sapiens (Human)) for `COc1cc2nccc(Oc3ccc(NC(=O)C4(C(=O)Nc5ccc(F)cc5)CC4)cc3)c2cc1C(=O)NOC1COC1`
7.00 to 8.00

Query pIC50 on AXL (Homo sapiens (Human)) for `COc1cc2nccc(Oc3ccc(NC(=O)C4(C(=O)Nc5ccc(F)cc5)CC4)cc3)c2cc1C1(O)CNC1`
6.52 to 7.00

Query pIC50 on AXL (Homo sapiens (Human)) for `CCNC(=O)c1cc2c(Oc3ccc(NC(=O)C4(C(=O)Nc5ccc(F)cc5)CC4)cc3)ccnc2cc1OC`
≥ 8.00

Query pIC50 on AXL (Homo sapiens (Human)) for `CNC(=O)c1cc2nccc(Oc3cc(F)c(NC(=O)C4(C(=O)Nc5ccc(F)cc5)CC4)cc3F)c2cc1C`
≥ 8.00

Query pIC50 on AXL (Homo sapiens (Human)) for `COc1cc2nccc(Oc3ccc(NC(=O)C4(C(=O)Nc5ccc(F)cc5)CC4)cc3)c2cc1-c1nnco1`
≥ 8.00

Query pIC50 on AXL (Homo sapiens (Human)) for `Nc1cc2nccc(Oc3ccc(NC(=O)C4(C(=O)Nc5ccc(F)cc5)CC4)cc3)c2cc1C(=O)O`
< 6.52

Query pIC50 on AXL (Homo sapiens (Human)) for `CO/N=C(\C)c1cc2c(Oc3ccc(NC(=O)C4(C(=O)Nc5ccc(F)cc5)CC4)cc3)ccnc2cc1OC`
6.52 to 7.00
